Target: T1, recombinant hMCAM-His (human, UniProt P43121 24-559)
T1 construct: not shown: His tag
T1 chain: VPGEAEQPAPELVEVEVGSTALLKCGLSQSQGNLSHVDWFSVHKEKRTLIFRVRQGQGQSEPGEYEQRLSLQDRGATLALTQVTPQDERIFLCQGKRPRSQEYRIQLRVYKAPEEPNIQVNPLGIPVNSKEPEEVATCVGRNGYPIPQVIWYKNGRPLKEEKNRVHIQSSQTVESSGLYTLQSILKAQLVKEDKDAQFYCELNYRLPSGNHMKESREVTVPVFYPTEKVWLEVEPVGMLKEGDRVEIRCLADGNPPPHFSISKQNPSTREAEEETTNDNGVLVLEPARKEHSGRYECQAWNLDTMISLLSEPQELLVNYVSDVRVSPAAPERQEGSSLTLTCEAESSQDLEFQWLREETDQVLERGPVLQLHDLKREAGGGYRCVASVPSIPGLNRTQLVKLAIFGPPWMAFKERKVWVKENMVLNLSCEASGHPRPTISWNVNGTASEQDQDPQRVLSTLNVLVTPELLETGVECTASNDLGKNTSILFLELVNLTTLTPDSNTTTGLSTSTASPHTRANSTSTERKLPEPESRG
Test: competitive ELISA on hMCAM-His against biotinylated rodent or chimeric 2120; relative to rodent 2120
metric: Fold over rodent (competitive ELISA IC50) (fold)
Numbers only; they are read as fold.

Give me measured Fold over rodent (competitive ELISA IC50), please, for this binder: h2120_VH5 + h2120_VL3 (antibody, V domains shown, also called h2120VH5VL3; VH5VL3) VH: QVTLKESGPVLVKPTETLTLTCTVSGFSLTSNAVSWVRQPPGKALEWIAAISSGGTTYYNSAFKSRLTISRDTSKSQVVLTMTNMDPVDTATYYCARRYGYGWYFDFWGQGTLVTVSS VL: DIQMTQSPSSLSASVGDRVTINCKASQNIYNSLAWYQQKPGKAPKVLIFNANSLQTGIPSRFSGSGSGTDFTLTISSLQPEDFATYYCQQFYSGYTFGQGTKLEIK 2.4
